Biological target: Adrenergic receptor alpha-1 (Rattus norvegicus, UniProt P15823+P23944+P43140)
Sequence (P15823 whole entry): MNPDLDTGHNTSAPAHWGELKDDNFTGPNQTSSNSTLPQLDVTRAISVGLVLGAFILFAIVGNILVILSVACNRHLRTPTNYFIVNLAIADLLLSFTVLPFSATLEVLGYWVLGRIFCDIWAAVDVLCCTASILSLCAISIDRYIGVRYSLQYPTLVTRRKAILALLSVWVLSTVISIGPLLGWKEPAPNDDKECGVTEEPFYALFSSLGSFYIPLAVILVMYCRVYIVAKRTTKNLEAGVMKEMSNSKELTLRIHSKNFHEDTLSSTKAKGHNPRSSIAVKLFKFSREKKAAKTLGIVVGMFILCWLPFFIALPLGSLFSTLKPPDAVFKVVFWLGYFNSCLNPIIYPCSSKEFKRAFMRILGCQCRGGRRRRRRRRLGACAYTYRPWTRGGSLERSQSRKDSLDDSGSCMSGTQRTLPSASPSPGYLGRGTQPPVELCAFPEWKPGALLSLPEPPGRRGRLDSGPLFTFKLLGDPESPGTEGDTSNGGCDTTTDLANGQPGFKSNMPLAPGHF
Sequence (P23944 whole entry): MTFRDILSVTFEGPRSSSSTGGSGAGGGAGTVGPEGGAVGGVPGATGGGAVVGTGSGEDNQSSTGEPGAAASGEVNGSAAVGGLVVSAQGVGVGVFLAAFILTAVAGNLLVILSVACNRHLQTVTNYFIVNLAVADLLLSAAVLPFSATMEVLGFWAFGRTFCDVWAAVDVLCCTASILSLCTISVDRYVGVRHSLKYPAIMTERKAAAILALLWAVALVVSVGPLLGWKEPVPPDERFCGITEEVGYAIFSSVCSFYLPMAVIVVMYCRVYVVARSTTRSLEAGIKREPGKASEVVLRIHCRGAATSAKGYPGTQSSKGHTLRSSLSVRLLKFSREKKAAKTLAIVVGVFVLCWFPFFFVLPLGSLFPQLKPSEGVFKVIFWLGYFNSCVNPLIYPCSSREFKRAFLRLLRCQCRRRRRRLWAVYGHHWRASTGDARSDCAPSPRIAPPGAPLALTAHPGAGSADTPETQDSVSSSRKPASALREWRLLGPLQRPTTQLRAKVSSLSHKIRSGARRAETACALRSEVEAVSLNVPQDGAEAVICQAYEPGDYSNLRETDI
Sequence (P43140 whole entry): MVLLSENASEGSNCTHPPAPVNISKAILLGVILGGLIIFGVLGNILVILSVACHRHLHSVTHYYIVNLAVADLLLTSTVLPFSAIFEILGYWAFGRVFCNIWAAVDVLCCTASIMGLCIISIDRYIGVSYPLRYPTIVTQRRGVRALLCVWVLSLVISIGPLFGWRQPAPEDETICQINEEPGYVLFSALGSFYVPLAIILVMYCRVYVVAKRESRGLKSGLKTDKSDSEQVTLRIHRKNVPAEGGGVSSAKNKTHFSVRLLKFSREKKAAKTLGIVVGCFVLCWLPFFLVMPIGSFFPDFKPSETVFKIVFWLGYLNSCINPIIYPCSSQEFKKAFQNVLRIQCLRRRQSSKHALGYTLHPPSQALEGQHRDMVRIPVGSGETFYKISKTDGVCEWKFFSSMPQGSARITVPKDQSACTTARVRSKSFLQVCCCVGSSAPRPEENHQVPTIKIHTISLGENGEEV
Experiment: Antagonistic activity against alpha-1 adrenergic receptor in isolated rat anococcygeus muscle
Assay type: functional, tissue-based
readout_name: pA2

Provide measured pA2 value, entry: `CN([C@@H]1CCN2CCc3ccccc3[C@@H]2C1)S(=O)(=O)c1ccccc1`
7.05

Provide measured pA2 value, entry: `CCCCCS(=O)(=O)N(C)[C@@H]1CCN2CCc3ccccc3[C@@H]2C1`
6.8

Provide measured pA2 value, entry: CCCS(=O)(=O)N(C)[C@@H]1CCN2CCc3ccccc3[C@@H]2C1 (stereo in doubt; 10)
6.34

Provide measured pA2 value, entry: `C=CS(=O)(=O)N(C)[C@@H]1CCN2CCc3ccccc3[C@@H]2C1`
6.32

Provide measured pA2 value, entry: `CCCN([C@@H]1CCN2CCc3ccccc3[C@@H]2C1)S(C)(=O)=O`
6.44

Provide measured pA2 value, entry: `CCOC(=O)N(C)[C@@H]1CCN2CCc3ccccc3[C@@H]2C1`
6.93

Provide measured pA2 value, entry: `CCS(=O)(=O)N(C)[C@@H]1CCN2CCc3ccccc3[C@@H]2C1`
6.17

Provide measured pA2 value, entry: `CN([C@@H]1CCN2CCc3ccccc3[C@@H]2C1)S(=O)(=O)CC(C)(C)C`
6.5

Provide measured pA2 value, entry: `CN(C)CCS(=O)(=O)N(C)[C@@H]1CCN2CCc3ccccc3[C@@H]2C1`
5.6

----------
Target: Adrenergic receptor alpha-1 (Rattus norvegicus, UniProt P15823+P23944+P43140)
Test: Antagonistic activity against alpha-1 adrenergic receptor in isolated rat anococcygeus muscle
Assay type: functional, tissue-based
readout_name: pA2

Enter measured pA2, system Adrenergic receptor alpha-1 (Rattus norvegicus, UniProt P15823+P23944+P43140), for the molecule shown: `CN([C@@H]1CCN2CCc3ccccc3[C@@H]2C1)S(=O)(=O)c1cccnc1`
6.73

Enter measured pA2, system Adrenergic receptor alpha-1 (Rattus norvegicus, UniProt P15823+P23944+P43140), for the molecule shown: `CN([C@@H]1CCN2CCc3ccccc3[C@@H]2C1)S(=O)(=O)CC1CC1`
6.7

Enter measured pA2, system Adrenergic receptor alpha-1 (Rattus norvegicus, UniProt P15823+P23944+P43140), for the molecule shown: `CN([C@@H]1CCN2CCc3ccccc3[C@@H]2C1)S(=O)(=O)N1CCCC1`
6.7

Enter measured pA2, system Adrenergic receptor alpha-1 (Rattus norvegicus, UniProt P15823+P23944+P43140), for the molecule shown: CC(C)CS(=O)(=O)N(C)[C@@H]1CCN2CCc3ccccc3[C@@H]2C1 (stereo in doubt; 16)
6.49

Enter measured pA2, system Adrenergic receptor alpha-1 (Rattus norvegicus, UniProt P15823+P23944+P43140), for the molecule shown: CCCS(=O)(=O)N(C)[C@@H]1CCN2CCc3ccccc3C2C1 (some centres undefined)
5.86

Enter measured pA2, system Adrenergic receptor alpha-1 (Rattus norvegicus, UniProt P15823+P23944+P43140), for the molecule shown: CN([C@@H]1CCN2CCc3ccccc3[C@@H]2C1)S(C)(=O)=O (stereo in doubt)
6.48

Enter measured pA2, system Adrenergic receptor alpha-1 (Rattus norvegicus, UniProt P15823+P23944+P43140), for the molecule shown: `CNS(=O)(=O)N(C)[C@@H]1CCN2CCc3ccccc3[C@@H]2C1`
6.19

Enter measured pA2, system Adrenergic receptor alpha-1 (Rattus norvegicus, UniProt P15823+P23944+P43140), for the molecule shown: `CC(C)COC(=O)N(C)[C@@H]1CCN2CCc3ccccc3[C@@H]2C1`
7

Enter measured pA2, system Adrenergic receptor alpha-1 (Rattus norvegicus, UniProt P15823+P23944+P43140), for the molecule shown: `CN([C@@H]1CCN2CCc3ccccc3[C@@H]2C1)S(=O)(=O)CCN1CCCCC1`
6.11

Enter measured pA2, system Adrenergic receptor alpha-1 (Rattus norvegicus, UniProt P15823+P23944+P43140), for the molecule shown: `CN([C@@H]1CCN2CCc3ccccc3[C@@H]2C1)S(=O)(=O)C(F)(F)F`
5.49

Enter measured pA2, system Adrenergic receptor alpha-1 (Rattus norvegicus, UniProt P15823+P23944+P43140), for the molecule shown: `CC(C)CS(=O)(=O)N(C)[C@H]1CCN2CCc3ccccc3[C@H]2C1`
5.2

Enter measured pA2, system Adrenergic receptor alpha-1 (Rattus norvegicus, UniProt P15823+P23944+P43140), for the molecule shown: `CN([C@@H]1CCN2CCc3ccccc3[C@@H]2C1)S(=O)(=O)CCl`
6.61

Enter measured pA2, system Adrenergic receptor alpha-1 (Rattus norvegicus, UniProt P15823+P23944+P43140), for the molecule shown: `CC(C)CS(=O)(=O)N[C@@H]1CCN2CCc3ccccc3[C@@H]2C1`
6.55

Enter measured pA2, system Adrenergic receptor alpha-1 (Rattus norvegicus, UniProt P15823+P23944+P43140), for the molecule shown: `CCN([C@@H]1CCN2CCc3ccccc3[C@@H]2C1)S(C)(=O)=O`
6.61

Enter measured pA2, system Adrenergic receptor alpha-1 (Rattus norvegicus, UniProt P15823+P23944+P43140), for the molecule shown: `CCCCS(=O)(=O)N(C)[C@@H]1CCN2CCc3ccccc3[C@@H]2C1`
6.6

Enter measured pA2, system Adrenergic receptor alpha-1 (Rattus norvegicus, UniProt P15823+P23944+P43140), for the molecule shown: `CN([C@@H]1CCN2CCc3ccccc3[C@@H]2C1)S(=O)(=O)c1ccsc1`
6.65

Enter measured pA2, system Adrenergic receptor alpha-1 (Rattus norvegicus, UniProt P15823+P23944+P43140), for the molecule shown: `COC(=O)N(C)[C@@H]1CCN2CCc3ccccc3[C@@H]2C1`
6.56

Enter measured pA2, system Adrenergic receptor alpha-1 (Rattus norvegicus, UniProt P15823+P23944+P43140), for the molecule shown: `CN([C@@H]1CCN2CCc3ccccc3[C@@H]2C1)S(N)(=O)=O`
5.7

Enter measured pA2, system Adrenergic receptor alpha-1 (Rattus norvegicus, UniProt P15823+P23944+P43140), for the molecule shown: `CN([C@@H]1CCN2CCc3ccccc3[C@@H]2C1)S(=O)(=O)c1cccc2cccnc12`
6.84
